Data provenance: the kinase profiling compilation of Christmann-Franck et al. (2016)

Below is a list of entries, each paired with its recorded kinase still bound, per cent of control value.
SYSTEM_TESTED: TLK1 (human)
PROTOCOL_TEXT: KINOMEscan competition binding
ASSAY_CONTEXT: compound 10.0 µM
Response body: numeric value in %, unit text excluded.

Here's what some known entries look like.
CN1C(=O)c2ccccc2N(C)c2nc(NS(=O)(=O)c3ccc(N)cc3)ncc21 ... 100
O=C1NC(=O)/C(=C/c2ccc(-c3ccc4c(C(=O)Nc5cccc(C(F)(F)F)c5)cccc4c3)o2)S1 ... 24
COc1cc(N2CCC(O)CC2)ccc1Nc1ncc2c(n1)N1CCc3cccc(c31)C(=O)N2C ... 91
O=C1NC(=S)S/C1=C\c1ccc(-c2cncc3ccccc23)o1 ... 5.8
CN1C(=O)c2ccccc2N(C)c2nc(Nc3ccc(N4CCC(O)CC4)cc3)ncc21 ... 69

Qu. Please tell me: kinase still bound, per cent of control of `CCN1CCN(Cc2cc(NC(=O)c3cccc4cc(-c5ccc(/C=C6\SC(=O)NC6=O)o5)ccc34)cc(C(F)(F)F)c2)CC1` , system TLK1 (human)?
Ans. 13

====

Below is a list of entries, each paired with its recorded kinase still bound, per cent of control value.
SYSTEM_TESTED: CDK3 (human) (UniProt Q00526)
Sequence (Q00526 whole entry, looked up): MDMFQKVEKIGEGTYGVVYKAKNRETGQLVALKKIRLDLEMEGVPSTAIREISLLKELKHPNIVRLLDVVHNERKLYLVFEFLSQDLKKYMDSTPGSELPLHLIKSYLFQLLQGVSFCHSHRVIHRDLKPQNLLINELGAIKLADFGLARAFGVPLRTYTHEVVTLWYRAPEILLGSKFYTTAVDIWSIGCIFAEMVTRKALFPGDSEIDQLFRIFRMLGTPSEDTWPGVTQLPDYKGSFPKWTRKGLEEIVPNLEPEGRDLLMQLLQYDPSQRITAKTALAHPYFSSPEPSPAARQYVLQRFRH
PROTOCOL_TEXT: KINOMEscan competition binding
ASSAY_CONTEXT: compound 10.0 µM
Write the quantity with the unit trailing the number.

Here's what some known entries look like.
N=C1NC(=O)/C(=C/c2ccc(-c3ccc(C(N)=O)cc3O)o2)S1 ... 30%
N=C1NC(=O)/C(=C/c2ccc(-c3ccc(F)cc3O)o2)S1 ... 6.5%
COc1cc(N2CCN(C)CC2)ccc1Nc1ncc2c(n1)Nc1ccccc1NC2=O ... 85%
COc1cc(N2CCN(C)CC2)ccc1Nc1ncc2c(n1)N(C)c1sccc1C(=O)N2C ... 100%
CN1C(=O)c2ccccc2N(C)c2nc(Nc3ccc(N4CCC(O)CC4)cc3)ncc21 ... 100%
CN1C(=O)c2ccccc2N(C)c2nc(NS(=O)(=O)c3ccc(N)cc3)ncc21 ... 100%

Qu. Entry `COc1cc(N2CCC(O)CC2)ccc1Nc1ncc2c(n1)N1CCc3cccc(c31)C(=O)N2C` has what kinase still bound, per cent of control?
Ans. 97%

Qu. Then `N=C1NC(=O)/C(=C/c2ccc(-c3ccc(S(N)(=O)=O)cc3)o2)S1` ?
Ans. 17%

Qu. Then `N=C1NC(=O)/C(=C/c2ccc(-c3ccccc3O)o2)S1` ?
Ans. 24%

Qu. Then `COc1cc(N2CCN(C)CC2)ccc1Nc1ncc2c(n1)N(C)c1ccccc1N(C)C2=O` ?
Ans. 96%

Qu. Then `CN1CCN(c2ccc(C(=O)Nc3ncc4c(n3)N(C)c3ccccc3C(=O)N4C)cc2)CC1` ?
Ans. 100%

Qu. Then `O=C1NC(=O)/C(=C/c2c[nH]c(=O)c(-c3ccc(N4CCNCC4)nc3)c2)S1` ?
Ans. 100%

====

SYSTEM_TESTED: RPS6KA1 KD1 (human) (UniProt Q15418)
Sequence (Q15418 whole entry, looked up): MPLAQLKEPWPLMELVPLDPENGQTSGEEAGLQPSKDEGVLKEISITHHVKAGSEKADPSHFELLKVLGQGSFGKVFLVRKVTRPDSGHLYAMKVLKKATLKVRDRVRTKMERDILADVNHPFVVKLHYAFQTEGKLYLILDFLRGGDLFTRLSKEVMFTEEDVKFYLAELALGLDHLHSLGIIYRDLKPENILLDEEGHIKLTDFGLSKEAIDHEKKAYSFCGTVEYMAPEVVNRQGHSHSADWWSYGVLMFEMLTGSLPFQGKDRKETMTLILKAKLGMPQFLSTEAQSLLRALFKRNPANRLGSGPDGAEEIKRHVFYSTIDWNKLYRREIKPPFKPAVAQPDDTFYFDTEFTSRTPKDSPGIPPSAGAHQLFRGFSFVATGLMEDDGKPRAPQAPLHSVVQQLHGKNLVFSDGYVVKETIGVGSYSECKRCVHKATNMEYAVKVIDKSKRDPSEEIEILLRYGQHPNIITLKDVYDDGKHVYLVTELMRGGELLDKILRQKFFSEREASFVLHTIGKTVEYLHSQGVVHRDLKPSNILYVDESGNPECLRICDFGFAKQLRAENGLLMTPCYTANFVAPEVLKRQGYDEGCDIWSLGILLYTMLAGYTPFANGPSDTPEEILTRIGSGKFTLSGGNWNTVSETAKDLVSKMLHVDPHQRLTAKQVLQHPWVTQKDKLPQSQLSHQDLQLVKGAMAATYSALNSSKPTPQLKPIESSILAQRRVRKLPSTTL
PROTOCOL_TEXT: KINOMEscan competition binding
ASSAY_CONTEXT: compound 10.0 µM
Below is a list of entries, each paired with its recorded kinase still bound, per cent of control value.
Response body: numeric value in %, unit text excluded.

CN1C(=O)[C@H]2CCC[C@H]2N(C2CCCC2)c2nc(Nc3ccc(C(N)=O)cc3)ncc21 ... 11
COc1cc(N2CCN(C)CC2)ccc1Nc1ncc2c(n1)Nc1ccccc1NC2=O ... 96
CN1CCN(c2ccc(C(=O)Nc3ncc4c(n3)N(C)c3ccccc3C(=O)N4C)cc2)CC1 ... 93

Qu. Entry `COc1cc(N2CCC(O)CC2)ccc1Nc1ncc2c(n1)N1CCc3cccc(c31)C(=O)N2C` has what kinase still bound, per cent of control?
Ans. 94

Qu. Then `O=C1NC(=O)/C(=C/c2c[nH]c(=O)c(-c3ccc(N4CCNCC4)nc3)c2)S1` ?
Ans. 71

Qu. Then `CN1C(=O)c2ccccc2N(C)c2nc(NS(=O)(=O)c3ccc(N)cc3)ncc21` ?
Ans. 100
